Values from patent US20260092093A1

# target: T1, hIL-18 receptor (hIL-18Rα and hIL-18Rβ) (human, UniProt Q13478 19-541; O95256 20-599)
# T1 sequence (looked up) 1: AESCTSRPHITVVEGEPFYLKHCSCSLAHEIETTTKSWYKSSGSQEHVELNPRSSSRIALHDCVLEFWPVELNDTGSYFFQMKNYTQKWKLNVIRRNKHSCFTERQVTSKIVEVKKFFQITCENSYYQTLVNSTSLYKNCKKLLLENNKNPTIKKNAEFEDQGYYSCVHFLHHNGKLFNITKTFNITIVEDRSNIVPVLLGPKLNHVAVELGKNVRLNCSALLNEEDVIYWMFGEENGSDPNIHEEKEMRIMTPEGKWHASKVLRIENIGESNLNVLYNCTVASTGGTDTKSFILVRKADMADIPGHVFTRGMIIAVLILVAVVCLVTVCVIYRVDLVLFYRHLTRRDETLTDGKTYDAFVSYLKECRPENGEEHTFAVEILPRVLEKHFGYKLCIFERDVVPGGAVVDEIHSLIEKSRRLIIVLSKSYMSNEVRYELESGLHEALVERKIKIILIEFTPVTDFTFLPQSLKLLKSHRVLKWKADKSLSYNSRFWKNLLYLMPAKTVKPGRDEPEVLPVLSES
# T1 sequence (looked up) 2: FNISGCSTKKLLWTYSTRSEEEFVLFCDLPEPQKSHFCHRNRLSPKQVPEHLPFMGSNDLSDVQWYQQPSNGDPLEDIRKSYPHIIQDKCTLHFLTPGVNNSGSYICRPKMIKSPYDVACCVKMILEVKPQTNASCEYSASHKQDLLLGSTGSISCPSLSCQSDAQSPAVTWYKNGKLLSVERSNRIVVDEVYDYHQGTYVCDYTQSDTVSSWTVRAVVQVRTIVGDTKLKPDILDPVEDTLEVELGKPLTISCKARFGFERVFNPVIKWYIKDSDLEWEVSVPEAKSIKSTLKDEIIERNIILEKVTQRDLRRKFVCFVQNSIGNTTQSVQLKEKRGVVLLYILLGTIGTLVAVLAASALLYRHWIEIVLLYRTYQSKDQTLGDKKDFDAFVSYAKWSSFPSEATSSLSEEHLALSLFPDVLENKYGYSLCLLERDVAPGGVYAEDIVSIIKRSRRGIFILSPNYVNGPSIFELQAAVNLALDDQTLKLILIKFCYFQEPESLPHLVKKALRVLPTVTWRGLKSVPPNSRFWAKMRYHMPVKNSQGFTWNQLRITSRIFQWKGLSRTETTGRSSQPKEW
# protocol_summary: cell-based or functional assay
metric: EC50 (nM), hIL-18 reporter assay
Use nM as the unit, but write only the number.

Tell me its EC50 (nM), hIL-18 reporter assay given IL-18 variant polypeptide M1 (ligand) YFPKLKSKLSVIRNLNDQVLFIDQGNRPLFEDMTDSDCRDNAPRTIFIISMYKHSDRRGMAVTISVKCEKISTLSCENKIISFKEMNPPDVIKDTKSDIIFFQVSVPGHDNKMQFESSSYEGYFLACEKERDLFKLILKKEDELGDRSIMFTVQNED as the entry.
1.45

Quickly give me recorded EC50 (nM), hIL-18 reporter assay for IL-18 variant polypeptide M37 (ligand) YFPKLGSKLSVIRNLNDQVLFIDQGNRPLFEDMTDSDCRDNAPRTIFIISMYKQSVWRGMAVTISVKCEKISTLSCENKIISFKEMNPPDNIKDTKSDIIFFQRSVPGHDNKMQFESSSYEGYFLACEKERDLFKLILKKEDELGDRSIMFTVQNED
0.14

Note down EC50 (nM), hIL-18 reporter assay recorded for IL-18 variant polypeptide WM10 (ligand) YFPKLKSKLSVIRNLNDQVLFIDQGNRPLFEDMTDSDCRDNAPRTIFIISMYKDSQPRGMAVTISVKCEKISTLSCENKIISFKEMNPPDSIKDTKSDIIFFQRSVPGHDNKMQFESSSYEGYFLACEKERDLFKLILKKEDELGDRSIMFTVQNED
14.7

Complete the entry with EC50 (nM), hIL-18 reporter assay for IL-18 variant polypeptide M20 (ligand) YFPKLRSKLSVIRNLNDQVLFIDQGNRPLFEDMTDSDCRDNAPRTIFIISMYKSSRSRGMAVTISVKCEKISTLSCENKIISFKEMNPPDGIKDTKSDIIFFQSSVPGHDNKMQFESSSYEGYFLACEKERDLFKLILKKEDELGDRSIMFTVQNED
2.2

Give the reported value of EC50 (nM), hIL-18 reporter assay for this record: IL-18 variant polypeptide WM6 (ligand) YFDKLKSKLSVIRNLNDQVLFIDQGNRPLFEDMTDSDCRDNAPRTIFIISMYKDSQPRGMAVTISVKCEKISTLSCENKIISFKEMNPPDSIKDTKSDIIFFQRSVPGHDNKMQFESSSYEGYFLACEKERDLFKLILKKEDELGDRSIMFTVQNED
0.06

Find the measured EC50 (nM), hIL-18 reporter assay of IL-18 variant polypeptide LM2 (ligand) YFPKLRSKLSVIRNLNDQVLFIDQGNRPLFEDMTDSDCRDNAPRTIFIISMYKLSGSRGMAVTISVKCEKISTLSCENKIISFKEMNPPDVIKDTKSDIIFFQRSVPGHDNKMQFESSSYEGYFLACEKERDLFKLILKKEDELGDRSIMFTVQNED and report it.
0.11

Indicate its recorded EC50 (nM), hIL-18 reporter assay; the binder in question is IL-18 variant polypeptide M35 (ligand) YFPKLRSKLSVIRNLNDQVLFIDQGNRPLFEDMTDSDCRDNAPRTIFIISMYKGSGARGMAVTISVKCEKISTLSCENKIISFKEMNPPDGIKDTKSDIIFFQRSVPGHDNKMQFESSSYEGYFLACEKERDLFKLILKKEDELGDRSIMFTVQNED
0.62

Supply measured EC50 (nM), hIL-18 reporter assay of IL-18 variant polypeptide M34 (ligand) YFPKLRSKLSVIRNLNDQVLFIDQGNRPLFEDMTDSDCRDNAPRTIFIISMYKHSRNRGMAVTISVKCEKISTLSCENKIISFKEMNPPDVIKDTKSDIIFFQESVPGHDNKMQFESSSYEGYFLACEKERDLFKLILKKEDELGDRSIMFTVQNED in your reply.
0.71

Output measured EC50 (nM), hIL-18 reporter assay for this item: IL-18 variant polypeptide M19 (ligand) YFPKLKSKLSVIRNLNDQVLFIDQGNRPLFEDMTDSDCRDNAPRTIFIISMYKHSEQRGMAVTISVKCEKISTLSCENKIISFKEMNPPDAIKDTKSDIIFFQRSVPGHDNKMQFESSSYEGYFLACEKERDLFKLILKKEDELGDRSIMFTVQNED
0.66

Identify measured EC50 (nM), hIL-18 reporter assay associated with IL-18 variant polypeptide M5 (ligand) YFEKLTSKLSVIRNLNDQVLFIDQGNRPLFEDMTDSDCRDNAPRTIFIISMYKWSPWRGMAVTISVKCEKISTLSCENKIISFKEMNPPDVIKDTKSDIIFFQTSVPGHDNKMQFESSSYEGYFLACEKERDLFKLILKKEDELGDRSIMFTVQKED
0.22

Hello, please tell me recorded EC50 (nM), hIL-18 reporter assay for this one: IL-18 variant polypeptide M38 (ligand) YFPKLSSKLSVIRNLNDQVLFIDQGNRPLFEDMTDSDCRDNAPRTIFIISMYKWSGARGMAVTISVKCEKISTLSCENKIISFKEMNPPDVIKDTKSDIIFFQISVPGHDNKMQFESSSYEGYFLACEKERDLFKLILKKEDELGDRSIMFTVQNED
0.57

Quickly give me recorded EC50 (nM), hIL-18 reporter assay for IL-18 variant polypeptide MM4 (ligand) YFPKLRSKLSVIRNLNDQVLFIDQGNRPLFEDMTDSDCRDNAPRTIFIISMYKLSTIRGMAVTISVKCEKISTLSCENKIISFKEMNPPDGIKDTKSDIIFFQRSVPGHDNKMQFESSSYEGYFLACEKERDLFKLILKKEDELGDRSIMFTVQNED
0.13

Output EC50 (nM), hIL-18 reporter assay of IL-18 variant polypeptide M7 (ligand) YFPKLRSKLSVIRNLNDQVLFIDQGNRPLFEDMTDSDCRDNAPRTIFIISMYKHSTARGMAVTISVKCEKISTLSCENKIISFKEMNPPDAIKDTKSDIIFFQRSVPGHDNKMQFESSSYEGYFLACEKERDLFKLILKKEDELGDRSIMFTVQNED
0.15

Please look at this binder and report its EC50 (nM), hIL-18 reporter assay: IL-18 variant polypeptide M10 (ligand) YFPKLRSKLSVIRNLNDQVLFIDQGNRPLFEDMTDSDCRDNAPRTIFIISMYKQSLWRGMAVTISVKCEKISTLSCENKIISFKEMNPPDSIKDTKSDIIFFQRSVPGHDNKMQFESSSYEGYFLACEKERDLFKLILKKEDELGDRSIMFTVQNED
0.29
